Numbers sourced from ChEMBL document CHEMBL1201861.

tested on: KE-37; assay: cells; type: functional, cell-based; conditions: Homo sapiens;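 also: growth inhibition of KE-37 cells, read out with a cell viability assay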
Description: SANGER: Inhibition of human KE-37 cell growth in a cell viability assay.
Endpoint: IC50 (nM)
One number for each entry, in nM.

C[C@]12O[C@H](C[C@]1(O)CO)n1c3ccccc3c3c4c(c5c6ccccc6n2c5c31)CNC4=O    16.8

Consider now this further compound.
q: I'd like to know its IC50. The compound in question is CC[C@]1(O)C[C@@H]2CN(CCc3c([nH]c4ccccc34)[C@@](C(=O)OC)(c3cc4c(cc3OC)N(C)[C@H]3[C@@](O)(C(=O)OC)[C@H](OC(C)=O)[C@]5(CC)C=CCN6CC[C@]43[C@@H]65)C2)C1
a: 3.99
